- SYSTEM_TESTED: T1, ZFP SBS#1004 (synthetic)
- T1 chain: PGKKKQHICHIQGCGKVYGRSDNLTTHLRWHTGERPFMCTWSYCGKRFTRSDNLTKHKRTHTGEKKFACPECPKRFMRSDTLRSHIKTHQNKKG
- ASSAY_DETAILS: EMSA
- RUN_PARAMETERS: tags: MBP fusion
pKd: −log10 of the molar value.

{"BINDER": "ACGTAGTAG (dsDNA) DNA 1: ACGTAGTAG DNA 2: CTACTACGT", "pKd": 8.85}
